Test system: CSM14.1 cells, thapsigargin-induced ATF-4 Western blot
assay summary: ER stress ATF-4 upregulation inhibition – CSM14.1 cells, thapsigargin, Western blot, mechanism study for ER stress cell death inhibitors, late-stage follow-up (AID 1389)
Calls of active or inactive are those of the source.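 Rule for the calls: active = no visible ATF-4 stress protein band on the western blot after compound pretreatment and chemical ER stress; inactive = the rest.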
Classes used: y = active, n = inactive

molecule="COc1ccc(C2CC(=O)C3=C(C2)Nc2ccccc2NC3c2cc(C)ccc2C)cc1 (stereo unspecified)" classification=y
molecule="COc1ccc(C2CC(=O)C3=C(C2)Nc2ccccc2NC3c2cccc(Oc3ccccc3)c2)cc1OC (stereo unspecified)" classification=n
molecule="CSc1ccc(C2Nc3ccccc3NC3=C2C(=O)CC(c2ccccc2)C3)cc1 (stereo unspecified)" classification=n
molecule="CCOc1cccc(C2Nc3ccccc3NC3=C2C(=O)CC(c2ccc(OC)cc2)C3)c1 (stereo unspecified)" classification=n
molecule="COc1ccc(C2CC(=O)C3=C(C2)Nc2ccccc2NC3c2ccccc2C(F)(F)F)cc1OC (stereo unspecified)" classification=n
molecule="CCOc1cc(C2Nc3ccccc3NC3=C2C(=O)CC(c2ccc(OC)cc2)C3)cc(Cl)c1O (stereo unspecified)" classification=n
